B1: VH:VL chains; a variant is named by its letters at X, in order (parent)
chain 1: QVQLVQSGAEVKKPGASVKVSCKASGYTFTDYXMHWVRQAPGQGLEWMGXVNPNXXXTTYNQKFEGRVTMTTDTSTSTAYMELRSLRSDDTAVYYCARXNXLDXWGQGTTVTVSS
chain 2: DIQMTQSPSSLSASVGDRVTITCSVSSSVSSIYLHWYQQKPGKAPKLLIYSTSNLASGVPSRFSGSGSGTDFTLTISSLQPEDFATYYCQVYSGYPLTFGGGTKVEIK

variants of: B1; experiment: yeast display scFab, FACS + sequencing; details: with MET
Some of the results follow. How many sequences the whole screen found active is unknown.
Metric: antigen binding call

variant_id=VTTKSDWV assay_value="no binding"
variant_id=AGGGNSGV assay_value="no binding"
variant_id=FTRESFAA assay_value="no binding"
variant_id=FRRGDAAV assay_value=binds
variant_id=FRAGGAAV assay_value=binds
variant_id=FRERGAGD assay_value=binds
variant_id=FRRGGAVD assay_value=binds
variant_id=SEARSYAV assay_value="no binding"
variant_id=FRAGSSWD assay_value=binds
variant_id=YRARSAAV assay_value=binds
variant_id=SKRRGSLS assay_value=binds

Data credit: the emibetuzumab library of Makowski et al. (2022)
